# measured.on: Cbl-B (Homo sapiens)
# Construct: MSD-Based Assay for Degradation of Cbl-B in THP-1 Cells; endogenous in cells; host or cells: THP-1 (title) / Jurkat (protocol text)
# protocol.notes: MSD-based assay for degradation of Cbl-B in THP-1 cells
# Assay type: cell-based
# condition.label: Cbl-B degradation, Jurkat cells seeded (heading: THP-1 cells), 24 hours incubation, MSD readout; read-out: Dmax
# Experimental: MSD-Based Assay for Degradation of Cbl-B in THP-1 Cells Assay plates were then shaken at 600 rpm for 5 minutes, followed by incubation for 24 hours in the 37° C. TC incubator. […] Cell debris was then spun down at maximum speed (about 3200 g) for 30 min and lysates frozen in the −80° C. fridge. […] Plates were again washed 3× with 150 ul/well of 1×TBST, followed by addition of 1×MSD reading buffer (MSD, R92TC-2), 150 ul/well, diluted from 4× with water. […]
metric: Dmax

Example results:
# molecule, measured.on, Dmax
data = [
    ("Cn1cnnc1[C@@H](c1cccc(-n2cc3c(C(F)(F)F)cc(CN4CCC(OCCCN5CCN(c6ccc7c(c6)CN([C@@H]6CCC(=O)NC6=O)C7=O)CC5)CC4)cn3c2=O)c1)C1CCC1 (single isomer, unassigned)", "Cbl-B (Homo sapiens)", "< 30%"),
    ("CN(CC1CCN(Cc2cc(C(F)(F)F)c3cn(-c4cccc(C5(Cc6nncn6C)COC5)c4)c(=O)n3c2)CC1)C(=O)c1ccc(N2CCN(c3ccc4c(c3)CN([C@@H]3CCC(=O)NC3=O)C4=O)CC2)cc1", "Cbl-B (Homo sapiens)", "30 to 50%"),
    ("Cn1cnnc1CC1(c2cccc(-n3cc4c(C(F)(F)F)cc(CN5CCC(OCc6ccc(C7CCN(c8ccc9c(c8)CN([C@H]8CCC(=O)NC8=O)C9=O)CC7)cc6)CC5)cn4c3=O)c2)COC1 (single isomer, unassigned)", "Cbl-B (Homo sapiens)", "50 to 70%"),
]

Alright, here's another molecule for you.
What value of measured Dmax is listed for Cn1cnnc1[C@@H](c1cccc(-n2cc3c(C(F)(F)F)cc(CN4CCC(OCCN5CCN(CC6CCN(c7ccc8c(c7)CN([C@@H]7CCC(=O)NC7=O)C8=O)CC6)CC5)CC4)cn3c2=O)c1)C1CCC1 (single isomer, unassigned) ?
30 to 50%

###

# measured.on: Cbl-B (Homo sapiens, UniProt Q13191)
# Construct: MSD-Based Assay for Degradation of Cbl-B in THP-1 Cells; endogenous in cells; host or cells: THP-1 (title) / Jurkat (protocol text)
# Sequence (Q13191 whole entry): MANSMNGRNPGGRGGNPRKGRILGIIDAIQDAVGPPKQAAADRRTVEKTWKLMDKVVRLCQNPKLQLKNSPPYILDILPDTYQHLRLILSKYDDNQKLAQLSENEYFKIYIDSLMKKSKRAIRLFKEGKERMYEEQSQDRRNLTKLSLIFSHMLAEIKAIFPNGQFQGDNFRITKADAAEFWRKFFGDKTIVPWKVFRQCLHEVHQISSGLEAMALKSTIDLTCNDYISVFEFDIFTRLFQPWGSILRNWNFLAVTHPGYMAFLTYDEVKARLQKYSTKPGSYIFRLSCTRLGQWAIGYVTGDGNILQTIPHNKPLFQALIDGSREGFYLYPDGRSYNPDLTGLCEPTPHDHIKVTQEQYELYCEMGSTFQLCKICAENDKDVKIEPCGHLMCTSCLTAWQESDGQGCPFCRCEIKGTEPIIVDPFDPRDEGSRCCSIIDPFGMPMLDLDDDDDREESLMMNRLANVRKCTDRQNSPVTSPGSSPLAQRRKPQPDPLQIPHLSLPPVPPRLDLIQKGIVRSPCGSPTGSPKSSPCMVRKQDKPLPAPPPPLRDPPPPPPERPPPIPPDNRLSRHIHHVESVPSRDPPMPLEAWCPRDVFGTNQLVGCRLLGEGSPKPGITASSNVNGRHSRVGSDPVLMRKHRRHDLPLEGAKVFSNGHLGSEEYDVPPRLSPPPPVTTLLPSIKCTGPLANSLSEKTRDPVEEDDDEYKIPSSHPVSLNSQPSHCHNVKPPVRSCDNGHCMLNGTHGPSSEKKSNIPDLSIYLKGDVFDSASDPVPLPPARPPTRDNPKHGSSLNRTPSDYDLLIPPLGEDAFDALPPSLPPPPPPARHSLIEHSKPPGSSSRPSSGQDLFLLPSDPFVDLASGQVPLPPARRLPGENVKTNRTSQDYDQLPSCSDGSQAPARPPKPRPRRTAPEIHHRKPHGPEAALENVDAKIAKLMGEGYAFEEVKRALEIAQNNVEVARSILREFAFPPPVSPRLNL
# protocol.notes: MSD-based assay for degradation of Cbl-B in THP-1 cells
# Format: cell-based
# condition.label: Cbl-B degradation, Jurkat cells seeded (heading: THP-1 cells), 24 hours incubation, MSD readout
metric: DC50

Example results:
# compound, DC50
records = [
    ("Cn1cnnc1CC1(c2cccc(-n3cc4c(C(F)(F)F)cc(CN5CC(OCCN6CCC(CN7CCN(c8ccc9c(c8)CN(C8CCC(=O)NC8=O)C9=O)CC7)CC6)C5)cn4c3=O)c2)COC1 (centres unmarked)", "> 10 µM"),
    ("Cn1cnnc1[C@@H](c1cccc(-n2cc3c(C(F)(F)F)cc(CN4CCC(OCCOCc5ccc(CN6CCN(c7ccc8c(c7)CN([C@H]7CCC(=O)NC7=O)C8=O)CC6)cc5)CC4)cn3c2=O)c1)C1CCC1 (single isomer, unassigned)", "< 0.03 µM"),
    ("CN(CC1CCN(Cc2cc(C(F)(F)F)c3cn(-c4cccc([C@H](c5nncn5C)C5CCC5)c4)c(=O)n3c2)CC1)C(=O)c1ccc(N2CCN(c3ccc4c(c3)CN([C@@H]3CCC(=O)NC3=O)C4=O)CC2)cc1 (single isomer, unassigned)", "1 to 10 µM"),
]

What value of measured DC50 is listed for Cn1cnnc1[C@@H](c1cccc(-n2cc3c(C(F)(F)F)cc(CN4CCC[C@H](OCCN5CCC(CN6CCN(c7ccc8c(c7)CN([C@H]7CCC(=O)NC7=O)C8=O)CC6)CC5)C4)cn3c2=O)c1)C1CCC1 ?
0.03 to 0.3 µM

What value of measured DC50 is listed for Cn1cnnc1CC1(c2cccc(-n3cc4c(C(F)(F)F)cc(CN5CCC(OCCN6CCN(CC7CCN(c8ccc9c(c8)CN([C@@H]8CCC(=O)NC8=O)C9=O)CC7)CC6)CC5)cn4c3=O)c2)COC1 (single isomer, unassigned) ?
0.3 to 1 µM

What value of measured DC50 is listed for Cn1cnnc1[C@@H](c1cccc(-n2cc3c(C(F)(F)F)cc(CN4CCC(O[C@@H]5CCCN(C(=O)c6ccc(N7CCN(c8ccc9c(c8)CN([C@@H]8CCC(=O)NC8=O)C9=O)CC7)cc6)C5)CC4)cn3c2=O)c1)C1CCC1 (single isomer, unassigned) ?
1 to 10 µM

What value of measured DC50 is listed for Cn1cnnc1[C@@H](c1cccc(-n2cc3c(C(F)(F)F)cc(CN4CCC(COCc5ccc(CN6CCN(c7cccc8c7C(=O)N(C7CCC(=O)NC7=O)C8=O)CC6)cc5)CC4)cn3c2=O)c1)C1CCC1 (some centres unmarked) ?
> 10 µM

What value of measured DC50 is listed for Cn1cnnc1[C@@H](c1cccc(-n2cc3c(C(F)(F)F)cc(CN4CCN(C(=O)CN5CCC(CN6CCN(c7ccc8c(c7)CN([C@@H]7CCC(=O)NC7=O)C8=O)CC6)CC5)CC4)cn3c2=O)c1)C1CCC1 ?
> 10 µM

###

# measured.on: Cbl-B (Homo sapiens, UniProt Q13191)
# Construct: MSD-Based Assay for Degradation of Cbl-B in THP-1 Cells; endogenous in cells; host or cells: THP-1 (title) / Jurkat (protocol text)
# protocol.notes: MSD-based assay for degradation of Cbl-B in THP-1 cells
# Format: cell-based
# condition.label: Cbl-B degradation, Jurkat cells seeded (heading: THP-1 cells), 24 hours incubation, MSD readout
DC50 values for the compounds below.

Example results:
# compound, DC50
records = [
    ("Cn1cnnc1[C@@H](c1cccc(-n2cc3c(C(F)(F)F)cc(CN4CCC(OCc5cccc(C(=O)N6CCN(c7ccc8c(c7)CN([C@@H]7CCC(=O)NC7=O)C8=O)CC6)c5)CC4)cn3c2=O)c1)C1CCC1 (single isomer, unassigned)", "> 10000 nM"),
    ("CN(CCOC1CCN(Cc2cc(C(F)(F)F)c3cn(-c4cccc([C@H](c5nncn5C)C5CCC5)c4)c(=O)n3c2)CC1)C(=O)c1ccc(N2CCC(c3ccc4c(c3)CN([C@@H]3CCC(=O)NC3=O)C4=O)CC2)cc1", "30 to 300 nM"),
    ("CO[C@H]1C[C@](c2cccc(-n3cc4c(C(F)(F)F)cc(CN5CCC(CN(C)C(=O)c6ccc(N7CCN(c8ccc9c(c8)CN([C@@H]8CCC(=O)NC8=O)C9=O)CC7)cc6)CC5)cn4c3=O)c2)(c2nncn2C)C1", "> 10000 nM"),
]

Record CN(CC1CCN(Cc2cc(C(F)(F)F)c3cn(-c4cccc([C@H](c5nncn5C)C5CCC5)c4)c(=O)n3c2)CC1)C(=O)c1ccc(C2CCN(c3ccc4c(c3)CN([C@@H]3CCC(=O)NC3=O)C4=O)CC2)cc1 (single isomer, unassigned) : what is its DC50 with Cbl-B (Homo sapiens, UniProt Q13191)?
30 to 300 nM

###

DC50 values for the compounds below.
# measured.on: Cbl-B (Homo sapiens)
# Construct: MSD-Based Assay for Degradation of Cbl-B in THP-1 Cells; endogenous in cells; host or cells: THP-1 (title) / Jurkat (protocol text)
# protocol.notes: MSD-based assay for degradation of Cbl-B in THP-1 cells
# Format: cell-based
# condition.label: Cbl-B degradation, Jurkat cells seeded (heading: THP-1 cells), 24 hours incubation, MSD readout

# compound, val
data = [
    ("CN(CCCN1CCN(Cc2cc(C(F)(F)F)c3cn(-c4cccc([C@H](c5nncn5C)C5CCC5)c4)c(=O)n3c2)CC1)C(=O)c1ccc(N2CCN(c3ccc4c(c3)CN([C@H]3CCC(=O)NC3=O)C4=O)CC2)cc1 (single isomer, unassigned)", "< 0.03 µM"),
    ("Cn1cnnc1[C@@H](c1cccc(-n2cc3c(C(F)(F)F)cc(CN4CCN(CC(=O)N5CCC(CN6CCN(c7ccc8c(c7)CN([C@@H]7CCC(=O)NC7=O)C8=O)CC6)CC5)CC4)cn3c2=O)c1)C1CCC1 (single isomer, unassigned)", "0.03 to 0.3 µM"),
    ("CO[C@H]1C[C@](c2cccc(-n3cc4c(C(F)(F)F)cc(CN5CCC(OCc6ccc(CN7CCN(c8ccc9c(c8)CN([C@@H]8CCC(=O)NC8=O)C9=O)CC7)cc6)CC5)cn4c3=O)c2)(c2nncn2C)C1 (single isomer, unassigned)", "0.3 to 1 µM"),
]

What value of measured DC50 is listed for Cn1cnnc1CC1(c2cccc(-n3cc4c(C(F)(F)F)cc(CN5CCC(CC(=O)N6CCC(CN7CCN(c8ccc9c(c8)CN([C@@H]8CCC(=O)NC8=O)C9=O)CC7)CC6)CC5)cn4c3=O)c2)COC1 ?
0.03 to 0.3 µM

What value of measured DC50 is listed for Cn1cnnc1CC1(c2cccc(-n3cc4c(C(F)(F)F)cc(CN5CCC[C@H](OCCN6CCC(CN7CCN(c8ccc9c(c8)CN([C@@H]8CCC(=O)NC8=O)C9=O)CC7)CC6)C5)cn4c3=O)c2)COC1 (single isomer, unassigned) ?
0.3 to 1 µM

What value of measured DC50 is listed for Cn1cnnc1[C@@H](c1cccc(-n2cc3c(C(F)(F)F)cc(CN4CCC(CC(=O)N5CCC(CN6CCN(c7ccc8c(c7)CN([C@H]7CCC(=O)NC7=O)C8=O)CC6)CC5)CC4)cn3c2=O)c1)C1CCC1 (single isomer, unassigned) ?
< 0.03 µM

What value of measured DC50 is listed for Cn1cnnc1[C@@H](c1cccc(-n2cc3c(C(F)(F)F)cc(CN4CCC(C5CCN(C(=O)c6ccc(N7CCN(c8ccc9c(c8)CN([C@H]8CCC(=O)NC8=O)C9=O)CC7)cc6)CC5)CC4)cn3c2=O)c1)C1CCC1 (single isomer, unassigned) ?
< 0.03 µM

What value of measured DC50 is listed for Cn1cnnc1[C@@H](c1cccc(-n2cc3c(C(F)(F)F)cc(CN4CCC(OCCc5ccc(CN6CCN(c7ccc8c(c7)CN([C@H]7CCC(=O)NC7=O)C8=O)CC6)cc5)CC4)cn3c2=O)c1)C1CCC1 ?
< 0.03 µM

What value of measured DC50 is listed for Cn1cnnc1CC1(c2cccc(-n3cc4c(C(F)(F)F)cc(CN5CCC(OCCN6CCC(CN7CCN(c8cc9c(cc8F)C(=O)N(C8CCC(=O)NC8=O)C9=O)CC7)CC6)CC5)cn4c3=O)c2)COC1 (centres unmarked) ?
> 10 µM
